test system: DU-145 cell line; test: Clonogenicity test, sensitizing effect with an antineoplastic drug; assay type: cell-based; conditions: Homo sapiens; DU-145, camptothecin alone; read-out: IC50 (clonogenic survival, camptothecin)
MEASURED ENDPOINT: pIC50
Hey, just a heads up that pIC50 is the negative log base 10 of the concentration in molar.

input: Item CC[C@@]1(O)C(=O)OCc2c1cc1n(c2=O)Cc2cc3ccccc3nc2-1 [camptothecin, reference compound] has what recorded pIC50?
output: 7.01

###

biological target: HsRad51 (Homo sapiens, UniProt Q06609); assay: RAD51 oligomerization by SDS-PAGE gel after crosslink; format: biochemical; settings: 2.5 μM HsRad51, disuccinimidyl suberate crosslink, SDS-PAGE/Western blot; FIG. 1
Sequence (Q06609 whole entry): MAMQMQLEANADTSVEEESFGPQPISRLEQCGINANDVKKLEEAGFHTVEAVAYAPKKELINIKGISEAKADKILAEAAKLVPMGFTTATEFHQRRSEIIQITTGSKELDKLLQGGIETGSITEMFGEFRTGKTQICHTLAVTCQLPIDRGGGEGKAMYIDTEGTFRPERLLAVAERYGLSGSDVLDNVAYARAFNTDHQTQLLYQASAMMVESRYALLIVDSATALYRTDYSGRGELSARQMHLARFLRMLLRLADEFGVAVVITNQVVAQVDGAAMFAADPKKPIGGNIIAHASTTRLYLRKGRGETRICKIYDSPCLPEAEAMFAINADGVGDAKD

COMPOUND SMILES	oligomerization state of RAD51 protein
O=S(=O)([O-])c1cc(I)ccc1/C=C/c1ccc(I)cc1S(=O)(=O)[O-].[K+].[K+]	significant reduction
[N-]=[N+]=Nc1ccc(/C=C/c2ccc(N=[N+]=[N-])cc2S(=O)(=O)[O-])c(S(=O)(=O)[O-])c1.[Na+].[Na+]	significant reduction
